system: UniProt:P0DTD1
experimentSummary: biochemical
Assay type: biochemical
Parameters: unit not given here
testContext: sheet LOPAC_screen_w_protease; primary screen with protease, compound at 5 µM; replicate 2
quantityName: Replicate_2
I'd appreciate a reply containing only the number, no unit.

Request the reported Replicate_2 associated with NC(CP(=O)(O)O)C(=O)O (racemic) [(±)-2-Amino-3-phosphonopropionic acid]
1.946

Which value of Replicate_2 has been reported for O=c1onc2cnc3ccccc3n12 [ODQ] in the records?
2.926

Bench note: what Replicate_2 did `Cl.NC1(C(=O)O)CCCCC1` show?
3.496

What does the data say about its Replicate_2? Entry: CC(C)NCC(O)c1ccc(O)c(O)c1.Cl (racemic) [(±)-Isoproterenol hydrochloride]
1.7371

May I ask what Replicate_2 has been recorded for CCCCCCCCCCCCCCCCCC(=O)NCC(COP(=O)([O-])OCC[N+](C)(C)C)OCC (racemic) ?
1.141

For the compound shown here, Cn1c(=O)c2[nH]c(-c3ccc(S(=O)(=O)O)cc3)nc2n(C)c1=O [8-(p-Sulfophenyl)theophylline] , give the reported Replicate_2.
3.439

Entry CC(C)C1C2CCC(C2)C1N.Cl (centres unmarked) [AGN 192403 hydrochloride] : reported Replicate_2 = ?
2.66

Entry CCCCCCCCCCCCCCCC(=O)OC(CC(=O)O)C[N+](C)(C)C.[Cl-] (racemic) [Palmitoyl-DL-Carnitine chloride] : reported Replicate_2 = ?
2.9894

If you can, please state the reported Replicate_2 value of COC(=O)C(C)(N)Cc1ccc(O)cc1.Cl (racemic) .
1.648

Give the measured Replicate_2 of NCCNC(=O)Cc1ccc(NC(=O)Cc2ccc(Nc3ncnc4c3ncn4[C@@H]3O[C@H](CO)[C@@H](O)[C@H]3O)cc2)cc1 [Adenosine amine congener] .
2.1037

Using the record for COC(=O)C1=C(C)NC(C)=C([N+](=O)[O-])C1c1ccccc1C(F)(F)F (racemic) [(±)-Bay K 8644] , report its Replicate_2.
3.642
